# Stated Conditions: pH 7.0, extrapolated to 0% acetonitrile
Consider the following compounds and their measured Log kw IAM readings.
Result Type: Log kw IAM

1. Cc1ncsc1-c1ccc(CNC(=O)[C@@H]2C[C@@H](O)CN2C(=O)[C@@H](N)C(C)(C)C)cc1.Cl [S,R,S-AHPC HCl] | 1.83
2. COc1cc(C(=O)NC2CCN(C)CC2)ccc1Nc1ncc(C(F)(F)F)c(Oc2cccc3c2C(=O)CC3)n1 | 1.84
3. Nc1cccc2c1C(=O)N(C1CCC(=O)NC1=O)C2=O (centres unmarked) [Pomalidomide] | 0.91
4. CC(=O)N1c2ccc(-c3ccc(C(=O)O)cc3)cc2[C@H](Nc2ccc(Cl)cc2)C[C@@H]1C | 1.88
5. Cc1ncsc1-c1ccc(CNC(=O)[C@@H]2C[C@H](O)CN2C(=O)[C@@H](N)C(C)(C)C)cc1.Cl.Cl [S,S,S-AHPC 2HCl] | 1.86

Source listed as paper PMC9574862.
